All figures here come from ChEMBL document CHEMBL5331119.

Reported IC50 is given for each of the following molecules.
# target: human dihydroorotate dehydrogenase (DHODH), mitochondrial (Homo sapiens)
# Sequence (Q02127 whole entry): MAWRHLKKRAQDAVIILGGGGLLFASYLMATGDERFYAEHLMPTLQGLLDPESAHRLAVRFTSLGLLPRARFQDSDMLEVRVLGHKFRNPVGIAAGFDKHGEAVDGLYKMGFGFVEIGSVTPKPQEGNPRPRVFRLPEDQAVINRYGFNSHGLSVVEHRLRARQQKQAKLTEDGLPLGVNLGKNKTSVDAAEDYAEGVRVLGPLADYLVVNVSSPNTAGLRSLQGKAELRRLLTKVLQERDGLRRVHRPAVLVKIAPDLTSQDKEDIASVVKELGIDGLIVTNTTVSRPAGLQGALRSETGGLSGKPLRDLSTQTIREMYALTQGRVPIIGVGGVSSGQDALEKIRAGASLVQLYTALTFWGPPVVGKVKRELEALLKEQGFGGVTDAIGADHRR
# experiment description: in vitro
# Description: Inhibition of human DHODH

The examples below pair each entry with its known result.
# molecular string, IC50
measured = [
    ("CCOC(=O)c1[nH]c(C)c(Cc2ccc(OCC)cc2)c1C", "> 100 µM"),
    ("CCOC(=O)c1[nH]c(C)c(Cc2ccc(C(F)(F)F)cc2)c1C", "> 100 µM"),
    ("Cc1c(Cc2cnc(C(F)(F)F)nc2)c[nH]c1C(=O)NC1CC1", "> 100 µM"),
    ("Cc1[nH]c(C(=O)NC2CC2)c(C)c1Cc1ccc(C(F)(F)F)nc1", "> 100 µM"),
]

Let us examine a further case.
Challenge: Fill in the blank: the reported IC50 of CCOC(=O)c1[nH]c(C)c(Cc2ccc(C(F)(F)F)nc2)c1C is ____.
Response given: > 100 µM
